Reference source for all entries: patent US8796256B2

In this section we review reported pEC50 values for a set of compounds.
target: UniProt P11474; assay: TR-FRET assay (disruption of co-activator peptide binding to ERR1 LBD); conditions: 6 nM 6His-ERR1LBD, 6 nM GST-SRC-2 peptide; average of 3 independent experiments
pEC50: −log10 of the molar value.
readout.type: pEC50

compound="CS(=O)(=O)NN1C(=O)S/C(=C\\c2ccc3c(c2)c(C#N)nn3Cc2ccc(C(F)(F)F)cc2C(F)(F)F)C1=O [Compound 369]" readout_type=pEC50 test_value=7.19
compound="O=C1S/C(=C\\c2ccc3c(cnn3Cc3ccc(F)cc3C(F)(F)F)c2)C(=O)N1[C@@H]1CCNC[C@H]1O (relative stereo) [Compound 272]" readout_type=pEC50 test_value=6.82
compound="O=C(O)CN1C(=O)S/C(=C\\c2ccc3c(c2)c(-c2ccc(F)cc2)nn3Cc2ccc(Cl)cc2C(F)(F)F)C1=O [Compound 408]" readout_type=pEC50 test_value=6.82
compound="N[C@@H]1CCCC[C@H]1N1C(=O)S/C(=C\\c2ccc3c(cnn3Cc3ccc(Cl)cc3C(F)(F)F)c2)C1=O [Compound 174]" readout_type=pEC50 test_value=6.82
compound="NC(=O)CN1CCC[C@H]1CN1C(=O)S/C(=C\\c2ccc3c(cnn3Cc3ccc(Cl)cc3C(F)(F)F)c2)C1=O [Compound 297]" readout_type=pEC50 test_value=7.12
compound="CC(C)(C)OC(=O)COCCN1C(=O)S/C(=C\\c2ccc3c(cnn3Cc3ccc(Cl)cc3C(F)(F)F)c2)C1=O [Compound 236]" readout_type=pEC50 test_value=6.95
compound="Cc1nc(CN2C(=O)S/C(=C\\c3ccc4c(cnn4Cc4ccc(Cl)cc4C(F)(F)F)c3)C2=O)n[nH]1 [Compound 86]" readout_type=pEC50 test_value=7.05
compound="O=C1S/C(=C\\c2ccc3c(cnn3Cc3ccc(Cl)cc3C(F)(F)F)c2)C(=O)N1CCc1cccnc1 [Compound 109]" readout_type=pEC50 test_value=6.82
compound="O=C1S/C(=C\\c2ccc3c(cnn3Cc3ccc(Cl)cc3C(F)(F)F)c2)C(=O)N1CCc1ccncc1 [Compound 108]" readout_type=pEC50 test_value=6.99

====

target: ERR1 (also known as ERR-α or ERR-1) (Homo sapiens, UniProt P11474); assay: TR-FRET assay (disruption of co-activator peptide binding to ERR1 LBD); assay type: biochemical; settings: 6 nM 6His-ERR1LBD, 6 nM GST-SRC-2 peptide; average of 3 independent experiments
Sequence (P11474 193-421 limits assumed, species assumed): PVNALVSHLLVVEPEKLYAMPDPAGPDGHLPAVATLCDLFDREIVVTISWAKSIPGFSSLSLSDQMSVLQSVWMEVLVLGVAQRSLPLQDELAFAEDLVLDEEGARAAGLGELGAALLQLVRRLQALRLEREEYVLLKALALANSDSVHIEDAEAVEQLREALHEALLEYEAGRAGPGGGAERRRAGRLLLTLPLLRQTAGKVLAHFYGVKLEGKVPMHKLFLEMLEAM
readout.type: log10 EC50 (log10 of the value in nM)

molecule="NS(=O)(=O)CN1C(=O)S/C(=C\\c2ccc3c(cnn3Cc3ccc(F)cc3C(F)(F)F)c2)C1=O [Compound 61]" test_value=2.43
molecule="O=C1S/C(=C\\c2ccc3c(cnn3Cc3ccc(Cl)cc3C(F)(F)F)c2)C(=O)N1C[C@@H]1CCCN2CCCC[C@H]12 [Compound 206]" test_value=1.99
molecule="CN(CCN1C(=O)S/C(=C\\c2ccc3c(cnn3Cc3ccc(Cl)cc3C(F)(F)F)c2)C1=O)S(C)(=O)=O [Compound 397]" test_value=1.36
molecule="O=C1S/C(=C\\c2ccc3c(cnn3Cc3ccc(F)cc3C(F)(F)F)c2)C(=O)N1[C@@H]1CNCC[C@H]1O (relative stereo) [Compound 281]" test_value=2.23
molecule="O=C1S/C(=C\\c2ccc3c(cnn3Cc3ccc(Cl)cc3C(F)(F)F)c2)C(=O)N1[C@H]1CCNC[C@H]1F (relative stereo) [Compound 201]" test_value=1.79
